Target: Cytochrome P450 1A2 (Homo sapiens) (UniProt P05177)
Sequence (P05177 whole entry, looked up): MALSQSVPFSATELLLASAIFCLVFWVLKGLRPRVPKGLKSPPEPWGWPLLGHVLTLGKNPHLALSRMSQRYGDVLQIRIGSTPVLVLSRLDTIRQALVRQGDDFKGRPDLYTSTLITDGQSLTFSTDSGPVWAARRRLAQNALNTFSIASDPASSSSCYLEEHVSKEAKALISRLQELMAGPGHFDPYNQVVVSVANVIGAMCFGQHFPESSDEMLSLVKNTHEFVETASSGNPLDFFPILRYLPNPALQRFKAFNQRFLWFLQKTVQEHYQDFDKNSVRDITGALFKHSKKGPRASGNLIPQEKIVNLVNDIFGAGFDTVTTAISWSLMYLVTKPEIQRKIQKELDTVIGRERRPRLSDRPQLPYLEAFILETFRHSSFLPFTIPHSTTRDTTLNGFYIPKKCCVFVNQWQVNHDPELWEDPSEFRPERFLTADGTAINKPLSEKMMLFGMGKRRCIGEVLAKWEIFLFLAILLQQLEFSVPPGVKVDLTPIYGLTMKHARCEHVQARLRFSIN
Assay: Cytochrome panel assay with activity outcomes; also: % is scaled to controls: 0 for no effect and ±100 for the full control effect
Settings: recombinant CYP, pro-luciferin dealkylation, luminescence, p450-cyp1a2; series mostly up to 57.1 µM
Out of some 16,000 compounds screened, about 5,700 (36%) were called active. Inconclusive results (about 24%) are left out. Some of the results follow. Square brackets hold non-standard residues; d marks the D form. Peptide text beside a SMILES is read from it. Ac5c = NC1(C(=O)O)CCCC1
Provide the reported activity, negative = inhibition of each item.

[ask] Write down measured activity, negative = inhibition (Cytochrome P450 1A2 (Homo sapiens) (UniProt P05177)) for this molecule. "O=C(O)CCSC1=NCCN1"
[reply] -7.93% [at 11.4 µM] (inactive)

[ask] Write down measured activity, negative = inhibition (Cytochrome P450 1A2 (Homo sapiens) (UniProt P05177)) for this molecule. "Nc1cc(S(=O)(=O)O)cc2ccc(S(=O)(=O)O)cc12"
[reply] -18.1% [at 2.29 µM] (inactive)

[ask] Write down measured activity, negative = inhibition (Cytochrome P450 1A2 (Homo sapiens) (UniProt P05177)) for this molecule. "CO/N=C(/C)CCC(=O)OC[C@@H]1O[C@H](C#Cc2ccccc2)C=C[C@@H]1Oc1ccc(C)cc1"
[reply] -10.1% [at 11.4 µM] (inactive)

[ask] Write down measured activity, negative = inhibition (Cytochrome P450 1A2 (Homo sapiens) (UniProt P05177)) for this molecule. "OCCCN=C1CCCCC1"
[reply] -9.6% [at 11.4 µM] (inactive)

[ask] Write down measured activity, negative = inhibition (Cytochrome P450 1A2 (Homo sapiens) (UniProt P05177)) for this molecule. "OC[C@@H](O)CNc1ncnc2ccccc12"
[reply] -18.7% [at 11.4 µM] (inactive)

[ask] Write down measured activity, negative = inhibition (Cytochrome P450 1A2 (Homo sapiens) (UniProt P05177)) for this molecule. "O=C(O)c1ccccc1CN1CCC[C@@H](C(=O)O)C1"
[reply] -5.22% [at 11.4 µM] (inactive)

[ask] Write down measured activity, negative = inhibition (Cytochrome P450 1A2 (Homo sapiens) (UniProt P05177)) for this molecule. "COc1nc(N)nc2c1ncn2[C@@H]1C[C@H](O)[C@@H](CO)O1"
[reply] -7.83% [at 11.4 µM] (inactive)

[ask] Write down measured activity, negative = inhibition (Cytochrome P450 1A2 (Homo sapiens) (UniProt P05177)) for this molecule. "CO[C@@H]1COC(=O)CC=C[C@@H](C)[C@@H]2C=C[C@@H](O)[C@@H](COC(=O)C/C=C\[C@H]1C)O2"
[reply] -5.43% [at 11.4 µM] (inactive)

[ask] Write down measured activity, negative = inhibition (Cytochrome P450 1A2 (Homo sapiens) (UniProt P05177)) for this molecule. "C[C@@H](CNC(N)=O)NC(N)=O"
[reply] -12.2% [at 11.4 µM] (inactive)

[ask] Write down measured activity, negative = inhibition (Cytochrome P450 1A2 (Homo sapiens) (UniProt P05177)) for this molecule. "O=C(CN1C(=O)c2ccccc2C1=O)NC1(C(=O)O)CCCC1"
[reply] -2.12% [at 2.29 µM] (inactive)

[ask] Write down measured activity, negative = inhibition (Cytochrome P450 1A2 (Homo sapiens) (UniProt P05177)) for this molecule. "C[C@H]1CN(CCO)CCN1c1ccccc1"
[reply] -18.4% [at 11.4 µM] (inactive)

[ask] Write down measured activity, negative = inhibition (Cytochrome P450 1A2 (Homo sapiens) (UniProt P05177)) for this molecule. "O[C@@H]1[C@@H](OCc2ccccc2)OC[C@H](O)[C@@H]1O"
[reply] -15.1% [at 11.4 µM] (inactive)

[ask] Write down measured activity, negative = inhibition (Cytochrome P450 1A2 (Homo sapiens) (UniProt P05177)) for this molecule. "Oc1c([C@H](Nc2ccccn2)c2ccccc2)ccc2cccnc12"
[reply] -21.9% [at 2.29 µM] (inactive)

[ask] Write down measured activity, negative = inhibition (Cytochrome P450 1A2 (Homo sapiens) (UniProt P05177)) for this molecule. "CN(C)c1ccccc1CN1CCCN(Cc2ccccc2N(C)C)C1c1ccncc1"
[reply] 3.06% [at 11.4 µM] (inactive)

[ask] Write down measured activity, negative = inhibition (Cytochrome P450 1A2 (Homo sapiens) (UniProt P05177)) for this molecule. "COc1cccc([C@@H]2Oc3ccc(OC)cc3/C(=N/O[C@@H](C)CN3CCCc4nc(C)c(C)cc43)[C@@H]2O)c1"
[reply] 2.03% [at 11.4 µM] (inactive)

[ask] Write down measured activity, negative = inhibition (Cytochrome P450 1A2 (Homo sapiens) (UniProt P05177)) for this molecule. "CO[C@H]1COC(=O)C/C=C\[C@H](C)[C@@H](NS(=O)(=O)c2ccc(C)cc2)COC(=O)CCC[C@@H]1C"
[reply] 1.16% [at 11.4 µM] (inactive)

[ask] Write down measured activity, negative = inhibition (Cytochrome P450 1A2 (Homo sapiens) (UniProt P05177)) for this molecule. "C/C=C\C1=C(CO)[C@H](O)[C@H]2O[C@H]2[C@H]1O"
[reply] -3.7% [at 11.4 µM] (inactive)

[ask] Write down measured activity, negative = inhibition (Cytochrome P450 1A2 (Homo sapiens) (UniProt P05177)) for this molecule. "COC(=O)C/C=C\[C@@H](C)[C@@H](/C=N\O[C@@H](C)CN1CCCc2nc(C)c(C)cc21)OC"
[reply] -0.522% [at 11.4 µM] (inactive)

[ask] Write down measured activity, negative = inhibition (Cytochrome P450 1A2 (Homo sapiens) (UniProt P05177)) for this molecule. "COC(=O)C/C=C\[C@@H](C)[C@@H](/C=N\OC[C@@H](O)[C@H]1O[C@H]2OC(C)(C)O[C@H]2[C@@H]1O)OC"
[reply] -15.6% [at 11.4 µM] (inactive)

[ask] Write down measured activity, negative = inhibition (Cytochrome P450 1A2 (Homo sapiens) (UniProt P05177)) for this molecule. "CCN1C(=O)[C@H]2[C@H]3[C@H](O)[C@H](O)C/C(=N/O[C@@H](C)c4cn([C@H]5COC[C@H]5O)nn4)[C@@H]3CC[C@@H]2C1=O"
[reply] -9.43% [at 11.4 µM] (inactive)

[ask] Write down measured activity, negative = inhibition (Cytochrome P450 1A2 (Homo sapiens) (UniProt P05177)) for this molecule. "O=C1[C@H]2[C@H]3[C@H](O)[C@H](O)C/C(=N/OC[C@@H](O)COCc4ccco4)[C@H]3CC[C@@H]2C(=O)N1C[C@@H]1CCCO1"
[reply] -17.3% [at 11.4 µM] (inactive)

[ask] Write down measured activity, negative = inhibition (Cytochrome P450 1A2 (Homo sapiens) (UniProt P05177)) for this molecule. "Cn1c(=O)c2[nH]c(CCS)nc2n(C)c1=O"
[reply] -15.3% [at 11.4 µM] (inactive)

[ask] Write down measured activity, negative = inhibition (Cytochrome P450 1A2 (Homo sapiens) (UniProt P05177)) for this molecule. "C[N+](C)(C)c1ccc([C@H](N)C(=O)O)cc1"
[reply] -19.7% [at 11.4 µM] (inactive)

[ask] Write down measured activity, negative = inhibition (Cytochrome P450 1A2 (Homo sapiens) (UniProt P05177)) for this molecule. NCC(=O)NC1(C(=O)O)CCCC1 (H-Gly-[Ac5c]-OH)
[reply] -5.18% [at 11.4 µM] (inactive)

[ask] Write down measured activity, negative = inhibition (Cytochrome P450 1A2 (Homo sapiens) (UniProt P05177)) for this molecule. "COC(=O)CC[C@@H](C)[C@H]1CC[C@H]2[C@H]3CC[C@H]4C[C@@H]5CC[C@@]4(C)C3(O5)[C@@H](Br)[C@@H](Br)[C@@]12C"
[reply] -8.93% [at 11.4 µM] (inactive)

[ask] Write down measured activity, negative = inhibition (Cytochrome P450 1A2 (Homo sapiens) (UniProt P05177)) for this molecule. "Nc1ccc(C(=O)C[C@H](N)C(=O)O)cc1O"
[reply] -4.16% [at 11.4 µM] (inactive)

[ask] Write down measured activity, negative = inhibition (Cytochrome P450 1A2 (Homo sapiens) (UniProt P05177)) for this molecule. "O=C(N[C@@]1(C(=O)O)C[C@@H]1c1ccccc1)c1ccccc1"
[reply] 2.45% [at 11.4 µM] (inactive)

[ask] Write down measured activity, negative = inhibition (Cytochrome P450 1A2 (Homo sapiens) (UniProt P05177)) for this molecule. "CC(CCN)(CCN)[N+](=O)[O-]"
[reply] -10.4% [at 11.4 µM] (inactive)

[ask] Write down measured activity, negative = inhibition (Cytochrome P450 1A2 (Homo sapiens) (UniProt P05177)) for this molecule. "COc1ccc(O[C@H]2C=C[C@@H](c3ccccc3)O[C@@H]2CON=C(C)C)cc1"
[reply] -2.27% [at 11.4 µM] (inactive)

[ask] Write down measured activity, negative = inhibition (Cytochrome P450 1A2 (Homo sapiens) (UniProt P05177)) for this molecule. "Cn1c(=O)c2[nH]c([C@@H]3CC(=O)C[C@H](c4nc5c([nH]4)c(=O)n(C)c(=O)n5C)N3)nc2n(C)c1=O"
[reply] -18.2% [at 2.29 µM] (inactive)

[ask] Write down measured activity, negative = inhibition (Cytochrome P450 1A2 (Homo sapiens) (UniProt P05177)) for this molecule. "Cc1ccc2[nH]c3nc(CCCn4ccnc4-c4ccccc4)nnc3c2c1"
[reply] -11.9% [at 11.4 µM] (inactive)

[ask] Write down measured activity, negative = inhibition (Cytochrome P450 1A2 (Homo sapiens) (UniProt P05177)) for this molecule. "Cc1cc(CN2CCCCC2)c(O)c(CN2CCCCC2)c1"
[reply] -18.8% [at 2.29 µM] (inactive)

[ask] Write down measured activity, negative = inhibition (Cytochrome P450 1A2 (Homo sapiens) (UniProt P05177)) for this molecule. "O=C(O)CCc1c2ccc(=O)c(O)c-2oc2c(O)c(O)ccc12"
[reply] -3.96% [at 2.29 µM] (inactive)

[ask] Write down measured activity, negative = inhibition (Cytochrome P450 1A2 (Homo sapiens) (UniProt P05177)) for this molecule. "CO[C@H]1COC(=O)[C@H](C)NC(=O)C/C=C\[C@@H](C)[C@@H](NS(=O)(=O)c2ccc(C)cc2)COC(=O)C/C=C\[C@@H]1C"
[reply] -0.0135% [at 11.4 µM] (inactive)

[ask] Write down measured activity, negative = inhibition (Cytochrome P450 1A2 (Homo sapiens) (UniProt P05177)) for this molecule. "O=S(=O)(O)c1cc(O)c2c(N=Cc3ccccc3O)cc(S(=O)(=O)O)cc2c1"
[reply] -23.7% [at 2.29 µM] (inactive)

[ask] Write down measured activity, negative = inhibition (Cytochrome P450 1A2 (Homo sapiens) (UniProt P05177)) for this molecule. "Clc1ccccc1C(Nc1ncccn1)Nc1ncccn1"
[reply] -16.9% [at 11.4 µM] (inactive)

[ask] Write down measured activity, negative = inhibition (Cytochrome P450 1A2 (Homo sapiens) (UniProt P05177)) for this molecule. "CC(=O)OC[C@@H]1O[C@@H](O/N=C2/C[C@@H](O)[C@@H](O)[C@@H]3[C@@H]4C(=O)N(C5CCCCC5)C(=O)[C@H]4CC[C@@H]23)[C@H](OC(C)=O)[C@H](OC(C)=O)[C@@H]1OC(C)=O"
[reply] 0.189% [at 11.4 µM] (inactive)

[ask] Write down measured activity, negative = inhibition (Cytochrome P450 1A2 (Homo sapiens) (UniProt P05177)) for this molecule. "O=C1[C@@H]2[C@H]3[C@H](O)[C@H](O)C/C(=N/OC[C@@H](O)COCc4ccco4)[C@H]3CC[C@H]2C(=O)N1c1ccc(F)cc1F"
[reply] 0.735% [at 11.4 µM] (inactive)
